- TARGET OR SYSTEM: human TLR2 (Homo sapiens, UniProt O60603)
- Sequence (O60603 21-784): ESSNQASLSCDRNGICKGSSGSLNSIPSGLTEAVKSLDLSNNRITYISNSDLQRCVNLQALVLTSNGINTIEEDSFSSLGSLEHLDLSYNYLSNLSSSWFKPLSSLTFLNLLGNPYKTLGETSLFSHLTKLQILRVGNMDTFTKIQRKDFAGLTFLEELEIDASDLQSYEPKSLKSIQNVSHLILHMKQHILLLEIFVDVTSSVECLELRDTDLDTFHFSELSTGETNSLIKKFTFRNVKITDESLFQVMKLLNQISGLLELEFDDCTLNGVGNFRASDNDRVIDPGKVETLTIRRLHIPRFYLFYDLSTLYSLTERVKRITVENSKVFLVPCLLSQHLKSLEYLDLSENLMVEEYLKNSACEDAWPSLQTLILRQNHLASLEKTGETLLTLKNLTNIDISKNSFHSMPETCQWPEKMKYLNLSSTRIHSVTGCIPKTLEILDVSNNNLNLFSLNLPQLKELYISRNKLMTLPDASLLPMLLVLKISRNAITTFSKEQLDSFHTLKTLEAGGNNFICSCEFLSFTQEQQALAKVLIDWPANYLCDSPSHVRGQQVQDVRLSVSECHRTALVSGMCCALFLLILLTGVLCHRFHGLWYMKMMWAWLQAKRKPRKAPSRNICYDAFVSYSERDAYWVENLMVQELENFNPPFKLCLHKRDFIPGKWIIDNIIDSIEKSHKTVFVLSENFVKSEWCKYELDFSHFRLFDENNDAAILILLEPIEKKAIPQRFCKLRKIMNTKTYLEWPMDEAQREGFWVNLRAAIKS
- EXPERIMENT SUMMARY: Reporter gene assay: HEK 293 cells stably transfected with human TLR2 and NF-kB-driven luciferase reporter
- ASSAY SETUP: Hek-TLR2 μM (EC50), HEK 293 stably transfected with human TLR2 and pNifty-Luciferase; 7 hours incubation; concentration giving 50% of maximal signal
PROPERTY: EC50 (nM)

CCCCCCCCCCNC(=O)OC[C@H](CSC[C@H](NC(=O)CCCCCC)C(=O)NCCOCCOCCOCCP(=O)(O)O)OC(=O)NCCCCCCCCCC	2170
CCCCCCCCCCNC(=O)OC[C@H](CSC[C@H](N)C(=O)NCCOCCOCCOCCP(=O)(O)O)OC(=O)NCCCCCCCCCC [Example 83]	820
CCCCCCCCCCCC(=O)OC[C@H](CSC[C@H](N)C(=O)NCCOCCOS(=O)(=O)O)OC(=O)CCCCCCCCCCC	61
CCCCCCCCCCCC(=O)OC[C@H](CSC[C@H](N)C(=O)NCCCOCCCCOCCCN)OC(=O)CCCCCCCCCCC	810
CCCCCCCCCCCCCCCCOC[C@H](CSC[C@H](N)C(=O)N[C@@H](CC)C(=O)N[C@H](CCC(=O)O)C(N)=O)OCCCCCCCCCCCCCCCC	14100

* * *

- TARGET OR SYSTEM: human TLR2 (Homo sapiens)
- EXPERIMENT SUMMARY: Reporter gene assay: HEK 293 cells stably transfected with human TLR2 and NF-kB-driven luciferase reporter
- ASSAY SETUP: Hek-TLR2 μM (EC50), HEK 293 stably transfected with human TLR2 and pNifty-Luciferase; 7 hours incubation; concentration giving 50% of maximal signal
PROPERTY: EC50 (nM)

CCCCCCCCCCCC(=O)OC[C@H](CSC[C@H](N)C(=O)NCCCN1CCOCC1)OC(=O)CCCCCCCCCCC	710
CCCCCCCCCCNC(=O)OC[C@H](CSC[C@H](N)C(=O)NCCOCCOCCOCCC(=O)O)OC(=O)NCCCCCCCCCC	6210
CCCCCCCCCCCCOC[C@H](CSC[C@H](N)C(=O)NCCOCCOCCOCCOCCP(=O)(O)O)OCCCCCCCCCCCC	1430
CCCCCCCCCCCC(=O)OC[C@H](CSC[C@H](N)C(=O)NCCOCCC(F)(F)P(=O)(O)O)OC(=O)CCCCCCCCCCC	14
CCCCCCCCCCCCCCCCOC[C@H](CSC[C@H](N)C(=O)NCCOCCOCCOCCP(=O)(O)O)OCCCCCCCCCCCCCCCC	3450
CCCCCCCCCCNC(=O)OC[C@H](CSC[C@H](NC(=O)CCCCC)C(=O)NCCOCCOCCOCCP(=O)(O)O)OC(=O)NCCCCCCCCCC	280
CCCCCCCCCCCCCCCC(=O)N[C@@H](CSC[C@@H](COC(=O)CCCCCCCCCCC)OC(=O)CCCCCCCCCCC)C(=O)N[C@@H](C)C(=O)N[C@H](CCC(=O)O)C(N)=O	960
CCCCCCCCCCCCOC[C@H](CSC[C@H](N)C(=O)N[C@@H](C)COCCOCCOCCP(=O)(O)O)NC(=O)CCCCCCCCCCC	990
